# target.desc: HLA-B*58:01
# test.name: IEDB peptide-MHC binding, purified MHC/direct/fluorescence; filed as Kd, often an IC50 or EC50 that approximates it; bounds were set here for any values at or beyond the usual limits of such assays
# experimental.context: source organism: Salmonella enterica
recorded.metric: Kd

EEQTDPKTL; ≥ 20 µM

----------
# target.desc: HLA-A*02:16
# test.name: IEDB peptide-MHC binding, purified MHC/direct/fluorescence; filed as Kd, often an IC50 or EC50 that approximates it; bounds were set here for any values at or beyond the usual limits of such assays
# experimental.context: source organism: Campylobacter jejuni subsp. jejuni 81116
pKd: −log10 of the molar value.
recorded.metric: pKd

YTNYPFLFF; ≤ 4.70

Values were extracted from the Immune Epitope Database (IEDB).
